Test system: anaesthetized guinea-pigs (QTc interval of the ECG)
Assay Overview: Anaesthetized guinea-pig QT
Type: in vivo
Measurement Conditions: highest dose level, i.v. infusion over 10 min
Listing of entries alongside the reported mean baseline-corrected QTc.
// units = %; emit number, no label

Compound Structure String: C[C@H](CS)C(=O)N1CCC[C@H]1C(=O)O
mean baseline-corrected QTc [%]: −6.0
//
Compound Structure String: COc1c(N2C[C@@H]3CCCN[C@@H]3C2)c(F)cc2c(=O)c(C(=O)O)cn(C3CC3)c12
mean baseline-corrected QTc [%]: 18.3
//
Compound Structure String: CC/C(=C(\c1ccccc1)c1ccc(OCCN(C)C)cc1)c1ccccc1
mean baseline-corrected QTc [%]: 8.4

Look at this compound and give its reported mean baseline-corrected QTc. C[C@@H]1CN(c2c(F)c(N)c3c(=O)c(C(=O)O)cn(C4CC4)c3c2F)C[C@H](C)N1
20.0

----------
Assay Overview: Drug concentrations in plasma of guinea-pigs
Assay type: in vivo
Measurement Conditions: anaesthetized guinea-pig, 1 mg kg^−1 i.v. over 10 min
Readout: Peak plasma level

Compound: CC(C)NCC(O)COc1cccc2ccccc12 (stereo not drawn)
Peak plasma level: 1.84±0.41 (3) μm

Compound: CC(C)NCC(O)c1ccc(NS(C)(=O)=O)cc1 (racemic)
Peak plasma level: 18.2±1.5 (5) μm

Compound: COc1cc(N)c(Cl)cc1C(=O)NC1CCN(CCCOc2ccc(F)cc2)CC1OC (stereo not drawn) [Cisapride]
Peak plasma level: 0.496±0.085 (5) μm

Compound: CC(=O)Oc1ccccc1C(=O)O
Peak plasma level: 31.1±2.3 (5) μm

Compound: COc1c(N2C[C@@H]3CCCN[C@@H]3C2)c(F)cc2c(=O)c(C(=O)O)cn(C3CC3)c12
Peak plasma level: 2.08±0.28 (4) μm

Would you kindly look at the next entry?
Look at this compound and give its reported Peak plasma level. O=C1Cc2cc(CCN3CCN(c4nsc5ccccc45)CC3)c(Cl)cc2N1
4.0±2.2 (2) μm

----------
Assay Overview: Drug concentrations in plasma of guinea-pigs
Assay type: in vivo
Measurement Conditions: anaesthetized guinea-pig, 3 mg kg^−1 i.v. over 10 min
The entries below are paired with their reported Peak plasma level.

# count of solved cases: 4
Compound: CC1(C)S[C@@H]2[C@H](NC(=O)[C@H](N)c3ccc(O)cc3)C(=O)N2[C@H]1C(=O)O [Amoxicillin]
Readout: Peak plasma level
Observed Measurement: 4.8±0.5 (5) μm
--
Compound: CC(C)NCC(O)COc1cccc2ccccc12 (centres unmarked) [Propranolol]
Readout: Peak plasma level
Observed Measurement: 4.65±0.40 (5) μm
--
Compound: C=C[C@H]1C[N@@]2CC[C@H]1C[C@@H]2[C@@H](O)c1ccnc2ccc(OC)cc12 [Quinidine]
Readout: Peak plasma level
Observed Measurement: 6.2±0.08 (3) μm
--
Compound: CC/C(=C(\c1ccccc1)c1ccc(OCCN(C)C)cc1)c1ccccc1 [Tamoxifen]
Readout: Peak plasma level
Observed Measurement: 3.8±0.8 (4) μm

Query: Peak plasma level; subject: C[C@@H]1CN(c2c(F)c(N)c3c(=O)c(C(=O)O)cn(C4CC4)c3c2F)C[C@H](C)N1 [Sparfloxacin]
23.5±4.2 (3) μm

GET /values?readout=Peak plasma level&item= CC(C)NCC(O)c1ccc(NS(C)(=O)=O)cc1 (racemic) [D,L-Sotalol]
41.3±4.8 (4) μm

Fill blank: measured Peak plasma level of the compound CC(=O)Oc1ccccc1C(=O)O [Aspirin] is ____.
74.6±2.1 (5) μm

Requested field: Peak plasma level. Item: C[C@H](CS)C(=O)N1CCC[C@H]1C(=O)O [Captopril]
57.8±1.6 (2) μm

----------
Tested Target: hERG potassium channels stably expressed in CHO-K1 cells (Homo sapiens, UniProt Q12809)
Sequence (Q12809 whole entry): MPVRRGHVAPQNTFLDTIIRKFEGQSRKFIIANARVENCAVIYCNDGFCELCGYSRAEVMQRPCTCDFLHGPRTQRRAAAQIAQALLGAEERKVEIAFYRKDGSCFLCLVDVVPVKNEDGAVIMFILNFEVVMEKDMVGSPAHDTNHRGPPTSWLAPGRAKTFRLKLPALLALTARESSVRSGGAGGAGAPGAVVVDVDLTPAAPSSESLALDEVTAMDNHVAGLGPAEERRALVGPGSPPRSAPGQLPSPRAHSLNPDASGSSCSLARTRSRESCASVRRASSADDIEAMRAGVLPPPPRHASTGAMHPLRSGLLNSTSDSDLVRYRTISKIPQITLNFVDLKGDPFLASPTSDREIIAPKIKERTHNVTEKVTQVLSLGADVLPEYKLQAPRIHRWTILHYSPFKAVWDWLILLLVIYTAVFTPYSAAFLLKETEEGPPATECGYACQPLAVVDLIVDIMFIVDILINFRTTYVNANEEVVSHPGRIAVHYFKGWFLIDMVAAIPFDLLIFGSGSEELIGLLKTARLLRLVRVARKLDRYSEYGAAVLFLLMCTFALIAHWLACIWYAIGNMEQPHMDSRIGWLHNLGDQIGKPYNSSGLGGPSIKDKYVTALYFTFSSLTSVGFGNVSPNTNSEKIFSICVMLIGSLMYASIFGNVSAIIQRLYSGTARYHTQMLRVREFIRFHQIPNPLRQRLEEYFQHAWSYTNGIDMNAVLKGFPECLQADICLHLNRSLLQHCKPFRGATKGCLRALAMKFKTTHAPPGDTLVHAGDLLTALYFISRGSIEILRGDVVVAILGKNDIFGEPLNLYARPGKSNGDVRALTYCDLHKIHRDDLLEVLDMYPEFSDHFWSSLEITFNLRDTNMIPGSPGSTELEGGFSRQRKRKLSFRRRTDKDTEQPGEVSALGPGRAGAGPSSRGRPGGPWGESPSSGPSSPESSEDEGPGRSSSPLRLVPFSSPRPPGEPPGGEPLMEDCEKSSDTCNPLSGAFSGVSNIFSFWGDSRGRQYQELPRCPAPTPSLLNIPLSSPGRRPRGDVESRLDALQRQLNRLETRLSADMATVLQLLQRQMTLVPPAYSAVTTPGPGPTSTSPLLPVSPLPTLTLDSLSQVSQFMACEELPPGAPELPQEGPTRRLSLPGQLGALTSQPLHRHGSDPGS
Assay Overview: cell-based
Measurement Conditions: 25 °C, 400-ms pulse protocol
Readout: pIC50
By convention, pIC50 is the negative base-10 log of a molar concentration.

Recorded pIC50 for C[C@@H]1CN(c2c(F)c(N)c3c(=O)c(C(=O)O)cn(C4CC4)c3c2F)C[C@H](C)N1 [Sparfloxacin] , please?
4.62

----------
Assay Overview: Drug concentrations in plasma of guinea-pigs
Assay type: in vivo
Measurement Conditions: anaesthetized guinea-pig, 10 mg kg^−1 i.v. over 10 min
Readout: Peak plasma level

Observe how each entry below is paired with its result.
Compound: CC1(C)S[C@@H]2[C@H](NC(=O)[C@H](N)c3ccc(O)cc3)C(=O)N2[C@H]1C(=O)O
Peak plasma level: 14.6±1.4 (4) μm
//
Compound: CC(C)NCC(O)c1ccc(NS(C)(=O)=O)cc1 (racemic)
Peak plasma level: 145.9±16.6 (5) μm
//
Compound: CC(=O)Oc1ccccc1C(=O)O
Peak plasma level: 468±78 (4) μm
//
Compound: C=C[C@H]1C[N@@]2CC[C@H]1C[C@@H]2[C@@H](O)c1ccnc2ccc(OC)cc12
Peak plasma level: 27.8±8.0 (5) μm
//
Compound: C[C@H](CS)C(=O)N1CCC[C@H]1C(=O)O
Peak plasma level: 142±15 (2) μm
//
Compound: C[C@@H]1CN(c2c(F)c(N)c3c(=O)c(C(=O)O)cn(C4CC4)c3c2F)C[C@H](C)N1
Peak plasma level: 80.4±9.1 (5) μm

Can you look up the measured Peak plasma level of CC/C(=C(\c1ccccc1)c1ccc(OCCN(C)C)cc1)c1ccccc1 for me?
10.5±2.1 (5) μm

Tell me the measured Peak plasma level of COc1c(N2C[C@@H]3CCCN[C@@H]3C2)c(F)cc2c(=O)c(C(=O)O)cn(C3CC3)c12 , please.
80.5±4.0 (5) μm

----------
Reported Peak plasma level values are given for each entry in this list.
Assay Overview: Drug concentrations in plasma of guinea-pigs
Assay type: in vivo
Measurement Conditions: anaesthetized guinea-pig, 0.3 mg kg^−1 i.v. over 10 min

Study these solved cases before continuing.
Molecule: O=C1Cc2cc(CCN3CCN(c4nsc5ccccc45)CC3)c(Cl)cc2N1
Peak plasma level: 1.2±0.1 (2) μm
--
Molecule: O=C(CCCN1CC=C(n2c(=O)[nH]c3ccccc32)CC1)c1ccc(F)cc1
Peak plasma level: 1.21±0.34 (5) μm
--
Molecule: CC(C)NCC(O)COc1cccc2ccccc12 (stereo not shown)
Peak plasma level: 0.50±0.03 (3) μm

Consider the additional molecule presented here.
# get_value(readout='Peak plasma level', item= COc1cc(N)c(Cl)cc1C(=O)NC1CCN(CCCOc2ccc(F)cc2)CC1OC (stereo not shown) [Cisapride] )
0.129±0.032 (4) μm
